TARGET OR TEST SYSTEM: ΔF508-CFTR (Homo sapiens, UniProt P13569, DEL508-508)
Construct: expressed in transfected cells
Sequence (P13569 with tags, fused parts or gaps DEL508-508): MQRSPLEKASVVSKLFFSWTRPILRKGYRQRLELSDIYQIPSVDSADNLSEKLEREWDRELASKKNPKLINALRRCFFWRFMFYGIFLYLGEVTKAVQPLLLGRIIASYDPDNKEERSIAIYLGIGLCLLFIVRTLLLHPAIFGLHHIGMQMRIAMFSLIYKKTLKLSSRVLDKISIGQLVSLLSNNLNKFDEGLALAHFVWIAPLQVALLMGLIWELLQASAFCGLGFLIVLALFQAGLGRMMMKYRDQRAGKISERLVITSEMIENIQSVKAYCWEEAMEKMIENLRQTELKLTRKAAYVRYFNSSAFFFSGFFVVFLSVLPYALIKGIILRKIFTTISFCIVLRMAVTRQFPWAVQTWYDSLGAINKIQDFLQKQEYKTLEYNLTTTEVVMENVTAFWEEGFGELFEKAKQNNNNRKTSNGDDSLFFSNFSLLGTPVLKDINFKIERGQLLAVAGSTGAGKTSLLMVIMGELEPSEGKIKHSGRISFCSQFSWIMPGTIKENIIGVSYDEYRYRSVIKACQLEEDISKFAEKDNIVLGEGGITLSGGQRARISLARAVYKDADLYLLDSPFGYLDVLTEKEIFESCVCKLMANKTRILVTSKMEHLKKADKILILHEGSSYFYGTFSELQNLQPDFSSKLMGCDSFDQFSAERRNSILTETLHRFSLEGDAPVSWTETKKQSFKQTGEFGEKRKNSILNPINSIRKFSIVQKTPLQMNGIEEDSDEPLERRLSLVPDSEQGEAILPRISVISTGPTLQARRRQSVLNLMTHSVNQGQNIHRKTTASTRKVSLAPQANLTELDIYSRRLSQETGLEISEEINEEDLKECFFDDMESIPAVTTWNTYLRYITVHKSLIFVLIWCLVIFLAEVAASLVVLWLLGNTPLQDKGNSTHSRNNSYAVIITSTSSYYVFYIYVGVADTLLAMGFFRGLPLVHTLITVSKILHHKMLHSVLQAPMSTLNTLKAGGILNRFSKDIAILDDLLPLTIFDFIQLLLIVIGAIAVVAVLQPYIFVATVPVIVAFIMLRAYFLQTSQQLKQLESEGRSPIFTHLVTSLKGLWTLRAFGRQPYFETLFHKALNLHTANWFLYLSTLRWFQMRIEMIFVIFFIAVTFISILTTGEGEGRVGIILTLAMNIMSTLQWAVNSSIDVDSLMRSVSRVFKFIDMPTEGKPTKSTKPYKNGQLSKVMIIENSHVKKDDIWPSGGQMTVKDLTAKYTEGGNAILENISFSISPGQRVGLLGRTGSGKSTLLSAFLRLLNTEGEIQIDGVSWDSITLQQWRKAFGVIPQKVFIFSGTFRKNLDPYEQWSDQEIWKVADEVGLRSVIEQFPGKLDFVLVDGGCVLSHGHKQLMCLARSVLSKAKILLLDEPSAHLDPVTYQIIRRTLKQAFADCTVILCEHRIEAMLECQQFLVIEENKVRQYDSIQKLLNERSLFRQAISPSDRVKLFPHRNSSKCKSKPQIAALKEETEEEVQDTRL
METHOD NOTES: Membrane potential optical assay for ΔF508-CFTR potentiation (FLIPR III, voltage sensing dyes)
Type: cell-based
TEST CONTEXT: assay not explicitly tied to the value, ΔF508-CFTR NIH 3T3 cells
pEC50: −log10 of the molar value.
REPORTED PROPERTY: pEC50

Suppose we examine the molecule O=C(Nc1ccc(N2C3CCC2CC3)cc1C(F)(F)F)c1c[nH]c2cccc(C(F)(F)F)c2c1=O [Compound I, Form A] ; what pEC50 value has been reported?
> 5.70
